Property: inhibition at 1 µM; scope: individual molecules
- subject.of.test: human ACC2 (Homo sapiens)
- Sequence (O00763 whole entry): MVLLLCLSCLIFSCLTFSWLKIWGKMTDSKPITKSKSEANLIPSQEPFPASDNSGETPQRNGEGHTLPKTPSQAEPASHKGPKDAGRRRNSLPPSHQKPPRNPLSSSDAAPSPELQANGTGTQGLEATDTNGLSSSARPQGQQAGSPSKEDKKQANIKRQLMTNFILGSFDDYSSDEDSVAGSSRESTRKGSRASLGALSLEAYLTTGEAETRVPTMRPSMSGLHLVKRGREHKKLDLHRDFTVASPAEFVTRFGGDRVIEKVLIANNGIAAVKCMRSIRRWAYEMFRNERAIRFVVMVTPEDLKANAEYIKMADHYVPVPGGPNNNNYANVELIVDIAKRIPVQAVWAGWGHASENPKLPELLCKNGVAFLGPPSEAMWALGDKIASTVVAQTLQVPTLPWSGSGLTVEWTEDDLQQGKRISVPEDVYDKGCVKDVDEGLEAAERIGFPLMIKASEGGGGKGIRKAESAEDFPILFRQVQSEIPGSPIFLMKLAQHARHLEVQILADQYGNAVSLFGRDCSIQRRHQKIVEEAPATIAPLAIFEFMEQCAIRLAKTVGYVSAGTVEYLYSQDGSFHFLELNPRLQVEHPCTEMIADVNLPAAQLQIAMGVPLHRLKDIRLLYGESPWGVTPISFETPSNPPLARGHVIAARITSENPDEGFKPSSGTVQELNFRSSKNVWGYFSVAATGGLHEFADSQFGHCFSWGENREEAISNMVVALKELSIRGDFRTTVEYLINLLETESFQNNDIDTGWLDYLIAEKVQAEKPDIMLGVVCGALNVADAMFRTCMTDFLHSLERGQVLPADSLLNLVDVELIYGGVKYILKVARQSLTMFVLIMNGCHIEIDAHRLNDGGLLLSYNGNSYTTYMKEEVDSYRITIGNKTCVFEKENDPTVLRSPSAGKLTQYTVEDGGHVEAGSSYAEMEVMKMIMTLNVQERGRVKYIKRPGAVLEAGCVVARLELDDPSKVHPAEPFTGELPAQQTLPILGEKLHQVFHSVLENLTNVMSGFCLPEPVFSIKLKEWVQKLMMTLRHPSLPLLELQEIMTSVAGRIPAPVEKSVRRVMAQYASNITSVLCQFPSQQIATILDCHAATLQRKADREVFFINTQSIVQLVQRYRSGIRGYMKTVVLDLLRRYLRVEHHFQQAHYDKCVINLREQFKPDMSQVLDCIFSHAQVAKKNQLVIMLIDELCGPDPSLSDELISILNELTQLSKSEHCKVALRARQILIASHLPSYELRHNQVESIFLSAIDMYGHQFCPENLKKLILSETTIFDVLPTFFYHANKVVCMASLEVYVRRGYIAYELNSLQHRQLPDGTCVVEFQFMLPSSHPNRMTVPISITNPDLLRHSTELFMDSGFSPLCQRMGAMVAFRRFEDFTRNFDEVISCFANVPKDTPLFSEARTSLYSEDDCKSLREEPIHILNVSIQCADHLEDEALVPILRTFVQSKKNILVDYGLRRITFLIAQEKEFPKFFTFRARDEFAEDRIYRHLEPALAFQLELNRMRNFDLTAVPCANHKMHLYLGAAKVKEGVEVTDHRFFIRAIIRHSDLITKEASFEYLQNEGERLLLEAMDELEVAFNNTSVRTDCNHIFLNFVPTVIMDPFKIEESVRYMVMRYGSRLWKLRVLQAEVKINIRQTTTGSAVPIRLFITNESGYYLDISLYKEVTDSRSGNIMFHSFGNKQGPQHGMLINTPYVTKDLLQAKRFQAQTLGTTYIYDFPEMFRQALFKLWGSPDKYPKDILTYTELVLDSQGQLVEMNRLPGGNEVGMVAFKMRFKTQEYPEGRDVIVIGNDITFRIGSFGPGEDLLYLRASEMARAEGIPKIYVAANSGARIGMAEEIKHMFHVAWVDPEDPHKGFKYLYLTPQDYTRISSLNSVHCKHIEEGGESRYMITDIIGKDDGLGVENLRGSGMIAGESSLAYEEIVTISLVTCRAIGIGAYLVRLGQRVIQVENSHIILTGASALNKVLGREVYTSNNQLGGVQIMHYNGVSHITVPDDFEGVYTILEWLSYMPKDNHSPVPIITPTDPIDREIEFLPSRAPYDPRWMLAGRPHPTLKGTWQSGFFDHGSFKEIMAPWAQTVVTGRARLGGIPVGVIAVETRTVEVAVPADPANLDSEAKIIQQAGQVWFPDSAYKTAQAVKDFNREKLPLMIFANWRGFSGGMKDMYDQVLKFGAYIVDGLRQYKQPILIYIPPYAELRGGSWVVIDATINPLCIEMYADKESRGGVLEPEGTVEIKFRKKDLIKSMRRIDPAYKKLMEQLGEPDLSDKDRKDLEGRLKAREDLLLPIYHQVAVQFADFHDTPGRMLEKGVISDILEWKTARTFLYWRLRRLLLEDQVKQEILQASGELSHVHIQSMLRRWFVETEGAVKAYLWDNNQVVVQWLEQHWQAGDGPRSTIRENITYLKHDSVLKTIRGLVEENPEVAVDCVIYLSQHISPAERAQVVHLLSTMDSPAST
- assay.summary: Acetyl CoA carboxylase (ACC) activity inhibition test, human ACC2
- Type: biochemical
- conditions.used: 1 μmol/liter test compound; read-out: Inhibition (%) by 1 μmol/liter Chemical, human ACC2
Where a name gives a salt, the structure may show the parent alone.

The examples below pair each entry with its known result.
molecule	subject.of.test	inhibition at 1 µM
COc1cc(C(=O)N2CCC3(CC2)CC(=O)c2cc(-c4cccc(C(=O)O)c4)ccc2O3)cc2c1ccn2C1CC1	human ACC2 (Homo sapiens)	99%
CCOc1cc(C(=O)N2CCC3(CC2)CC(=O)c2cc(-c4cncc(C(=O)O)c4)ccc2O3)cc2c1c(C)cn2C1CC1	human ACC2 (Homo sapiens)	100%
COc1cc(C(=O)N2CCC3(CC2)CC(=O)c2cc(-c4cncc(C(=O)O)c4)ccc2O3)cc2c1ccn2C1CC1 [Example 7, sodium salt]	human ACC2 (Homo sapiens)	99%
CCOc1cc(C(=O)N2CCC3(CC2)CC(=O)c2cc(-c4nnn[nH]4)ccc2O3)cc2c(C3CC3)noc12	human ACC2 (Homo sapiens)	98%
CCn1cnc2c(OC)cc(C(=O)N3CCC4(CC3)CC(=O)c3cc(-c5nnn[nH]5)ccc3O4)cc21	human ACC2 (Homo sapiens)	89%

# input molecule: "COc1cc(C(=O)N2CCC3(CC2)CC(=O)c2cc(-c4nnn[nH]4)ccc2O3)cc2c1ccn2OC" ; wanted: its inhibition at 1 µM
99%
